Metric: melting point

Take a look at these entries with their results.
> print(dat)
                                   molecule         metric         result
1  COc1ccc(-c2[nH]nc3c2C(=O)c2c(NC(=O)NNC(=O)c4ccccc4)cccc2-3)cc1  melting point       > 300 °C
2  Cc1cc2c(Cl)ccc(-n3c(=O)cc(C(F)(F)F)n(C)c3=O)c2o1  melting point  206 to 207 °C
3  O=c1ccn(-c2cccc(C(F)(F)F)c2)nc1-c1c(F)cnn1-c1ccccc1  melting point  156 to 158 °C

Item: COC(=O)Cc1ccc(CNC(=O)C2Cc3ccccc3N2S(=O)(=O)c2ccc(-c3ccc(F)cc3C)cc2)cc1 (centres undefined) | melting point: 71 to 75 °C

Item: "CN1C(=O)N(c2ccc(C(=O)O)cc2)S(=O)(=O)c2ccc(OCC3CCCCC3)cc21" | melting point: 240 to 241 °C

Item: CC(C)(C)CCN1C(=O)C(NC(=O)Oc2ccccc2)C(=O)N(c2ccccc2F)c2ccccc21 (centres undefined) | melting point: 199 to 200 °C

Item: "CCCCOc1c(CNC(=O)OC(C)(C)C)n(CC(C)(C)C)c(=O)c2ccc(/C=C/C(N)=O)cc12" | melting point: 121 to 122 °C

---

Metric: melting point

> print(dat)
                                   compound         result
1  CCCCOC(=O)c1cccc(-c2c3nn(-c4ccc(Cl)cc4)c(=O)c-3c[nH]c2C)c1  185 to 190 °C
2               COc1ccc(C(=O)O)cc1Nc1ccccc1  198 to 200 °C
3  Clc1ccc(C2CC(n3ccnc3)c3ccccc3N2)cc1 (stereo not given)  158 to 160 °C
4         CC(C)(C(=O)O)c1cccc(OCc2ccccc2)c1  114 to 116 °C

Let us move to another entry and its melting point.
Item: "CCc1c(C(=O)c2cc(C)cc(C)c2)n(C/C=C/CO)c(=O)[nH]c1=O" | melting point: 172 to 173 °C

---

Metric: melting point

> print(dat)
                                   compound         result
1  CCCOc1ccc(-c2scc(-c3ccccc3Cl)c2CC(=O)NC(=N)n2cccn2)cc1  119 to 120 °C
2                    O=C(O)c1ccc2c(c1)COCC2  140 to 142 °C
3  CCCc1c(OCc2cccc(C(=O)NC(C)CCCc3cccnc3)c2)ccc(C(C)=O)c1O (stereo not given)  115 to 118 °C
4  CCOCc1nc2c(N)nc(C)c(C)c2n1CCCCS(=O)(=O)NC  194 to 196 °C
5  CCCCCC(C)C(C)c1cc(O)c2c(c1)OC(C)(C)C1=C2CN(CC(=O)NC(=O)Nc2ccccc2)CC1 (stereo not given)  159 to 161 °C

Item: "CN(C)CCCOc1ccc2c(=O)c3ccc(OCCCN(C)C)cc3oc2c1" | melting point: 69 to 70 °C

Item: "COc1ccc(-c2cnc(N)c(Br)n2)cc1" | melting point: 166 to 170 °C

Item: COc1cc2c(cc1O)C(=O)C1c3c(cc(OC(C)C)c(OC)c3-2)CCN1C (stereo not given) | melting point: 240 to 242 °C

Item: "Cc1cc2nc(C)c(CCCl)c(=O)n2o1" | melting point: 165 °C

Item: "CCOC(=O)c1c(N2CCN(C(=O)c3cccs3)CC2)c2cccnc2n(CCN(C)C)c1=O" | melting point: 134 °C

---

In this section we review reported melting point values for a set of compounds.

> print(dat)
                                   compound         metric         result
1  OCCCc1ncnn1C(c1ccccc1)(c1ccccc1)c1ccccc1  melting point  150 to 152 °C
2  Cc1cc(C)n(-c2nnc(-c3ccc(Cl)cc3)c(C)n2)n1  melting point  151 to 152 °C
3  COc1ccc2nc(NC(=O)C(CC3CCCC3)c3ccc(S(=O)(=O)NC4CC4)cc3)sc2n1 (configuration not stated)  melting point  235 to 237 °C
4  CC(C)NCC(O)COc1ncc(Br)nc1N(C)C (configuration not stated)  melting point  130 to 131 °C
5  CC(C)(C)OC(=O)c1ncn2c1cc(C(=O)N1CCNCC1)c1cc(Cl)ccc12  melting point  239 to 240 °C
6  COc1ccccc1NC(=O)Nc1nc(Oc2ccc3ccccc3c2)nc(N(CCC(=O)O)Cc2ccc(C)cc2)n1  melting point  202 to 205 °C
7     O=C(O)c1cc(OC(F)(F)F)ccc1[N+](=O)[O-]  melting point    90 to 93 °C
8  CN(C)c1cccc(S(=O)Nc2ccccc2)c1 (configuration not stated)  melting point    86 to 87 °C

Item: "C#CCNc1ccc([N+](=O)[O-])cc1C(F)(F)F" | melting point: 71 to 72 °C

Item: "CCOC(=O)c1ccc(NCCCc2ccc(Cl)cc2)cc1" | melting point: 122 to 124 °C

Item: "O=C(CCCCl)c1ccc2ccccc2c1" | melting point: 43 to 44 °C

Item: "COc1ccc(N2CCCN(/C(C)=C(/C#N)C(N)=S)CC2)cn1" | melting point: 159 to 161 °C

Item: CC(Oc1cc(-c2ccccc2)nc2ccccc12)C(=O)N1CCSCC1 (configuration not stated) | melting point: 198 °C

Item: "CN1C(=O)CN(c2ccccc2)C1=O" | melting point: 168 to 170 °C

Item: "O=C(NNS(=O)(=O)c1ccccc1)c1ccnc2ccccc12" | melting point: 153 to 156 °C

Item: CCC1(c2ccc(Cl)cc2)OCc2c1cnc(C)c2O (configuration not stated) | melting point: 215 °C

Item: "OCC(CBr)(CBr)CBr" | melting point: 67 to 69 °C

---

In this section we review reported melting point values for a set of compounds.

Take a look at these entries with their results.
> print(dat)
                                   compound         result
1  CCCNC(=O)Nc1ccc(N)cc1C(=O)NCC1CCN(C(c2ccccc2)c2ccccc2)CC1  213 to 214 °C
2  Cc1oc(-c2ccccc2)nc1CCOc1ccc(C[C@@H](C(=O)O)N2CCN(c3ccccc3)CC2)cc1Br  220 to 222 °C
3                  CSc1sc(S(C)(=O)=O)cc1C#N  126 to 128 °C
4  CC(C)NC(=O)C1c2cc(NC(=O)c3cc(C(F)(F)F)nn3-c3ncccc3Cl)c(Cl)cc2CC1F (centres undefined)    98 to 99 °C
5  COc1ccc(C(=O)N2c3ccccc3C(n3c4ccccc4c4ccccc43)=CC2C)cc1OC (centres undefined)  184 to 185 °C

Item: CC1CC(=O)c2cc([N+](=O)[O-])c(F)cc2O1 (centres undefined) | melting point: 139 to 141 °C

Item: "CC(=O)Nc1cc(F)ccc1C(=O)NCCN1CCC(O)(c2ccc(Cl)cc2)CC1" | melting point: 175 °C

Item: "C/C(=C\c1ccc(C(=O)OC(C)C)cc1)c1ccc2c(c1)C(C)(C)CCC2(C)C" | melting point: 119 to 120 °C

Item: "COC(=O)c1ncoc1-c1cc(OC)c(OC)c(OC)c1" | melting point: 175 to 176 °C

---

In this section we review reported melting point values for a set of molecules.

> print(dat)
                  molecule         metric  result
1  N#Cc1cncc(NCc2ccccc2)c1  melting point  131 °C

Item: "COc1cc(OCc2ccc3c(c2)C(C)(C)CCC3(C)C)ccc1C(=O)OCc1ccccc1" | melting point: 112 to 113 °C

Item: "CC1(C)C=C(c2ccccn2)c2cc(Cl)c(Cl)cc2OC1" | melting point: 98 °C

Item: "N#CC(c1ccccc1)(c1ccccc1)[C@H]1CCCN(CCc2ccc3c(c2)CCC3)C1" | melting point: 88 to 91 °C

Item: "O=C(NC1CCCCC1)c1c(O)c2cc(F)ccc2n(Cc2ccccc2)c1=O" | melting point: 130 to 134 °C

---

In this section we review reported melting point values for a set of compounds.

Item: "COC(=O)NNC(=O)C(F)(F)F" | melting point: 105 °C

Item: "CNC(=O)[C@@H]1C=CCN1S(=O)(=O)c1ccc(Cl)c(CBr)c1Cl" | melting point: 66 °C

Item: N#Cc1ccc(C2(Cc3ccccc3)C(=O)N(CC3CC3)Cc3cncn32)cc1 (configuration not stated) | melting point: 156 to 158 °C

Item: "CS(=O)(=O)c1ccc(-c2cnn(-c3ccc(F)cc3)c(=O)c2COc2ccccc2)cc1" | melting point: 42 to 75 °C

Item: "Cc1cc(C)c(O)c(C(CCCC(c2cc(C)cc(C)c2O)c2cc(C)cc(C)c2O)c2cc(C)cc(C)c2O)c1" | melting point: 236 to 242 °C

Item: "COCCc1nc2cnc3cc(OCc4ccccc4)ccc3c2n1CC(C)(C)O" | melting point: 170 to 172 °C

Item: "COC(=O)c1cc(C(=O)c2ccccc2)ccc1OC" | melting point: 88 °C

Item: "Clc1ccccc1Oc1ncc2c(-c3cccs3)n[nH]c2n1" | melting point: 221 to 223 °C

Item: Cc1ccc(N2C(=O)C(O)=C(C(=O)c3ccc(C(C)C)cc3)C2c2ccc(Cn3ccnn3)cc2)nn1 (configuration not stated) | melting point: 293 °C

Item: "O=C(c1ccccc1)N1CCC(CSc2ccccc2)CC1" | melting point: 76 to 79 °C

Item: CCN(CC)CCNC(C(=O)NC(C)(C)C)c1ccccc1 (configuration not stated) | melting point: 50 to 52 °C

Item: O=C1C=C2CCCCC2N1c1ccc(O)cc1 (configuration not stated) | melting point: 210 °C

Item: Cc1ccc(S(=O)(=O)N2CCCC2c2ccc(C)cc2C)cc1 (racemic) | melting point: 130 °C

Item: "COc1cc2c(Nc3ccc(Cl)cc3F)ncnc2cc1OCCN1CCSCC1" | melting point: 181 to 182 °C
